Entries and their IC50 values follow.
# Experimental system: human sodium channel NaV1.2 (Homo sapiens, UniProt Q99250)
# Sequence (Q99250 whole entry): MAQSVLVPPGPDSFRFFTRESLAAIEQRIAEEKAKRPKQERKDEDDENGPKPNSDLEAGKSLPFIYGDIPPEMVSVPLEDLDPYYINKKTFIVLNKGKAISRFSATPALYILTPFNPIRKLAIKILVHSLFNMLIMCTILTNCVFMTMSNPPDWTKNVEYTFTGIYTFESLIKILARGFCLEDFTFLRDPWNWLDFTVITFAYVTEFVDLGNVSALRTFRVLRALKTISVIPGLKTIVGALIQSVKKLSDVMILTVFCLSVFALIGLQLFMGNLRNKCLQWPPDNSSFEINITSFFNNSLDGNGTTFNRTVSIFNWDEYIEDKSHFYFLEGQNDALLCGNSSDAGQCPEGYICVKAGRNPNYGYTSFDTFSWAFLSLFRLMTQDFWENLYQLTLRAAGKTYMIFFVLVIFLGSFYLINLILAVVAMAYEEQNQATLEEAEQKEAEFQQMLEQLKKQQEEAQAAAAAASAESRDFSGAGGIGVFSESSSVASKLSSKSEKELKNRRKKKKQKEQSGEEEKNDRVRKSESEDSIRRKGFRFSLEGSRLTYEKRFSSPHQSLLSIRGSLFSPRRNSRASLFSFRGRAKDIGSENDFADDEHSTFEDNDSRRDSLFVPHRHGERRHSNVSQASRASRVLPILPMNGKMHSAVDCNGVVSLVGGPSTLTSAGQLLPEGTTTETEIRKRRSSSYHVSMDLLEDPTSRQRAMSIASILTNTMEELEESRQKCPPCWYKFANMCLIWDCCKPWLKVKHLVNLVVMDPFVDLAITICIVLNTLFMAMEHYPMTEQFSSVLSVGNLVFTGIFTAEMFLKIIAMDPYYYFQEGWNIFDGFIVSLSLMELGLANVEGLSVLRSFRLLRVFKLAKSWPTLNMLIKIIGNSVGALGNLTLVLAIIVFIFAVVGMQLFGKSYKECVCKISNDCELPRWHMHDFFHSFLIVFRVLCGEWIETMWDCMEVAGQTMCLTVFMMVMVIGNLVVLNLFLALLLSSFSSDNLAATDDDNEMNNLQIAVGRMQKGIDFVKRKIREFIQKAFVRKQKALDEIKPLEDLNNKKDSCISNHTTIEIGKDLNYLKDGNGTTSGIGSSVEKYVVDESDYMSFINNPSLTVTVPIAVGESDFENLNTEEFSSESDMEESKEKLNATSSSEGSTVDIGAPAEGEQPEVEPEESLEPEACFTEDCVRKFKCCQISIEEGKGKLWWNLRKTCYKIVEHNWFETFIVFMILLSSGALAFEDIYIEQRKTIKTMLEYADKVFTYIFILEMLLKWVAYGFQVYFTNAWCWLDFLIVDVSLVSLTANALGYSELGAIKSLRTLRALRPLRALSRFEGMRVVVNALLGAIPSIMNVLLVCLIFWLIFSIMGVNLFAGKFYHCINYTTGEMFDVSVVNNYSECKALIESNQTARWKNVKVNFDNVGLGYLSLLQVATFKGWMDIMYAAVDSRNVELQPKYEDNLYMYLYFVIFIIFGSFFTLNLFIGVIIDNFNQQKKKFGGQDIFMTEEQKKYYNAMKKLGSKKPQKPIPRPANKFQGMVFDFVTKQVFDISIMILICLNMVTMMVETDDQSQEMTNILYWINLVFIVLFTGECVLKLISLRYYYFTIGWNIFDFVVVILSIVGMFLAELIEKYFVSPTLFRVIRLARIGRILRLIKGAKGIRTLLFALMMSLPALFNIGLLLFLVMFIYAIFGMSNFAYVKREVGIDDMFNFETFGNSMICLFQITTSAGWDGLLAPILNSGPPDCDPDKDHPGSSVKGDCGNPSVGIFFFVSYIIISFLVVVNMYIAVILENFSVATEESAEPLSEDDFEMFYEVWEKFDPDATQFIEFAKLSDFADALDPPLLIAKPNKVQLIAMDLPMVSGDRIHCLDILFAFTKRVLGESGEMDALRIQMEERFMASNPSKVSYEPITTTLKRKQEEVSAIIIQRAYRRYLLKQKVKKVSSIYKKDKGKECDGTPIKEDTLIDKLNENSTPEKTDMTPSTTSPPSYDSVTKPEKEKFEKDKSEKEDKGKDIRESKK
# Assay text: NaV1.2 inhibition, automated patch-clamp (Q-Patch HTX), slow inactivated state (state C)
# Assay type: cell-based
# Condition parameters: hNaV1.2 CHO cells, slow inactivated state; read-out: NaV1.2 IC50
Endpoint label: IC50

1. O[C@@H](COC1CCCCC1)CN1CCC2(CCc3ccccc3O2)CC1 [Example 438] : 1310 nM
2. COc1ccccc1OC1CCN(CC2c3ccccc3OC2(C)C)CC1 (stereo not drawn) [Example 129] : 1060 nM
3. COc1cccc(OC2CCN(CCN3CCc4ccccc4C3=O)CC2)c1 [Example 195] : 1500 nM
4. COc1ccccc1OC1CCN(CC2c3ccccc3CC2C)CC1 (stereo not drawn) [Example 101] : 370 nM
5. O=C1c2ccccc2CCCN1CCN1CCC(Oc2ccc(F)cc2)CC1 [Example 208] : 1210 nM
6. O=C1c2ccccc2CCN1CCN1C[C@@H]2CC[C@H]1CN2c1ccccc1 [Example 316] : 80 nM
7. c1ccc(C2COC3(CCN(CC4CCc5ccccc54)CC3)C2)cc1 (single isomer, unassigned) [Example 375] : 350 nM
8. Cc1ccc(N2CCN(CC(O)COC3CCCCC3)CC2)cc1 (stereo not drawn) [Example 76] : 240 nM
9. OC(COC1CCCCC1)CN1C[C@@H]2CC[C@H]1CN2c1ccccc1 (stereo partly drawn) [Example 317] : 1830 nM
10. COc1ccccc1O[C@@H]1CCN(CC2Cc3ccccc3C2)[C@H](C)C1 [Example 140] : 510 nM
11. Cc1ccc(N2CCN(C[C@@H](O)COC3CCCCC3)CC2)cc1 [Example 78] : 4660 nM
12. c1ccc([C@H]2COC3(CCN(C[C@@H]4CCc5ccccc54)CC3)C2)cc1 (single isomer, unassigned) [Compound 378] : 770 nM
13. O[C@H](CO[C@@H]1CCCc2ccccc21)CN1CC[C@@H](Oc2ccc(F)cc2)C1 [Example 52] : 1690 nM
14. OC(COC1CCCCC1)CN1CCCC2(CCN(c3ccccc3)C2)C1 (stereo not drawn) [Example 356] : 610 nM
15. COc1ccc2c(c1)C(CN1CCC(Oc3ccccc3)CC1)CC2 (stereo not drawn) [Example 107] : 1990 nM
16. Fc1ccc(OC2COC3(C2)CN(CC2CCc4ccccc42)C3)cc1 (stereo not drawn) [Example 368] : 380 nM
17. O[C@@H](COC1CCCCC1)CN1CC2(CC(c3ccccc3)CO2)C1 (stereo partly drawn) [Example 361] : 2710 nM
18. COc1ccc2c(c1)C(C)(CN1CCC(Oc3ccccc3OC)CC1)CC2 (stereo not drawn) [Example 97] : 80 nM
19. c1ccc(O[C@@H]2COC3(CCN(C[C@@H]4CCc5ccccc54)CC3)C2)cc1 (single isomer, unassigned) [Compound 383] : 110 nM
20. c1ccc(OC2CCN(CCC3COCc4ccccc43)CC2)cc1 (stereo not drawn) [Example 179] : 610 nM
21. COc1ccc2c(c1)C(CN1CCC(OCc3ccccc3Cl)CC1)CC2 (stereo not drawn) [Example 244] : 160 nM

These measurements were taken from patent US11186564B2.
